Biological target: T1, human GIP receptor (human) (UniProt P48546)
T1 sequence (looked up): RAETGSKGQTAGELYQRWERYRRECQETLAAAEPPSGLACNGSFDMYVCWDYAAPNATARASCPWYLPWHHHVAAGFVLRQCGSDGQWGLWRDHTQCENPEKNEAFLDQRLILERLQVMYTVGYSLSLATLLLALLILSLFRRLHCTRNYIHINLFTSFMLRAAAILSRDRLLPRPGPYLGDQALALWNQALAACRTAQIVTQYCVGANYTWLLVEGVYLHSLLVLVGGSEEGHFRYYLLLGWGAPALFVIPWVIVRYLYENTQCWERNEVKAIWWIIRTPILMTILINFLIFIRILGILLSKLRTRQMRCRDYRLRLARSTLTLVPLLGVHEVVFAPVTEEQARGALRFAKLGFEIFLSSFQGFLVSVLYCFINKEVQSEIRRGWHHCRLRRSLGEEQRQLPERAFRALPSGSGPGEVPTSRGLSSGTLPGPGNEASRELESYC
Assay: cell-based or functional assay
Non-standard residues stand in square brackets, D forms with d. No end group written: not given here. αMePhe(2-F) = C[C@](N)(Cc1ccccc1F)C(=O)O; αMeL = CC(C)C[C@](C)(N)C(=O)O; Aib = CC(C)(N)C(=O)O
Parameter measured: cAMP Rel EC50, nM (1% HSA) (nM)

Binder	Parameter measured	Observed result
YXQGTFTSDXSXXLDKKAQXAFIEXLIEXGPSSGEPPPSGSE (non-natural residues; Lys acylated AEEA-(γGlu)2-C18 diacid; C-terminal amide; synthetic construct; SITE 2: note = 2-Aminoisobutyric Acid; SITE 10: note = 3-(4-Pyridyl)-L-alanine; SITE 12: note = L-ornithine; SITE 13: note = alpha-methyl-leucine; SITE 17: note = Lysine is chemically modified through conjugation of the epsilon-amino group of the Lysine side chain with (2-[2-(2-) [Example 988]	cAMP Rel EC50, nM (1% HSA)	11.8
Y[Aib]QGT[αMePhe(2-F)]TSDYSKILDKIAQKAFIEYLIEGGPSSGAPPPSEG-NH2 (not fully specified (residue 20)) [Example 355]	cAMP Rel EC50, nM (1% HSA)	33.2
Y[Aib]QGTFTSDYSI[αMeL]LDKQAAKQFIEYLIA[Aib]GPSSGEPPPSEG-NH2 (not fully specified (residue 20)) [Example 349]	cAMP Rel EC50, nM (1% HSA)	52.6
YXQGTFTSDFSXXLDKKAQXAFIEWLLEGGTSSGAPPPSGT (synthetic construct; SITE 2: note = 2-Aminoisobutyric Acid; SITE 12: note = L-ornithine; SITE 13: note = alpha-methyl-leucine; SITE 17: note = Lysine is chemically modified through conjugation of the epsilon-amino group of the Lysine side chain with (2-[2-(2-Amino-ethoxy)-ethoxy]-acetyl)-(gamma-Glu)) [Example 177]	cAMP Rel EC50, nM (1% HSA)	34.8
YXQGTFTSDXSXXLDXKAQXQFIEXLIAGGPSSGAPPPSGSEE (non-natural residues (Aib, 4Pal, Orn, Me4Pal, αMeY); lipidated Lys; C-amide; synthetic construct; SITE 2: note = 2-Aminoisobutyric Acid; SITE 10: note = 3-(4-Pyridyl)-L-alanine; SITE 12: note = L-ornithine; SITE 13: note = alpha-methyl-leucine; SITE 16: note = L-ornithine; SITE 17: note = Lysine is chemically modified through conjugation of the epsilon-amino group of the Lys) [Example 992]	cAMP Rel EC50, nM (1% HSA)	12.5
YXQGTFTSDFSKXLDKKAQXAFIEYLIEGGESSGAPPPSGS (acylated; synthetic construct; SITE 2: note = 2-Aminoisobutyric Acid; SITE 13: note = alpha-methyl-leucine; SITE 17: note = Lysine is chemically modified through conjugation of the epsilon-amino group of the Lysine side chain with (2-[2-(2-Amino-ethoxy)-ethoxy]-acetyl)-(gamma-Glu)-CO-(CH2) 16-CO2H; SITE 20: n) [Example 215]	cAMP Rel EC50, nM (1% HSA)	87.3
YXQGTFTSDFSQXLDKKAQXAFIEYLLEAGPSSXAPPPSGT (synthetic construct; SITE 2: note = 2-Aminoisobutyric Acid; SITE 13: note = alpha-methyl-leucine; SITE 17: note = Lysine is chemically modified through conjugation of the epsilon-amino group of the Lysine side chain with (2-[2-(2-Amino-ethoxy)-ethoxy]-acetyl)-(gamma-Glu)-CO-(CH2) 16-CO2H; SITE 20: n) [Example 779]	cAMP Rel EC50, nM (1% HSA)	19.3
YXQGTFTSDXSQXLDXKAQXQFIEYLLAGGPSSGAPPPSGSEE ((γGlu)2-C18 diacid on Lys; non-natural residues; amide; synthetic construct; SITE 2: note = 2-Aminoisobutyric Acid; SITE 10: note = 3-(4-Pyridyl)-L-alanine; SITE 13: note = alpha-methyl-leucine; SITE 16: note = L-ornithine; SITE 17: note = Lysine is chemically modified through conjugation of the epsilon-amino group of the Lysine side chain with (gamma-Gl)) [Example 1006]	cAMP Rel EC50, nM (1% HSA)	11.8
YXQGTFTSDXSQXLDXKAQXQFIEXLIEGGPSSGEPPPSGSEE (non-natural residues, lipidated Lys, C-terminal amide; synthetic construct; SITE 2: note = 2-Aminoisobutyric Acid; SITE 10: note = 3-(4-Pyridyl)-L-alanine; SITE 13: note = alpha-methyl-leucine; SITE 16: note = L-ornithine; SITE 17: note = Lysine is chemically modified through conjugation of the epsilon-amino group of the Lysine side chain with (gamma-Gl)) [Example 1026]	cAMP Rel EC50, nM (1% HSA)	61.3
YXQGTXTSDYSILLDKKAQXAFIEFLEEGGPSSGAPPPSEG (not fully specified; synthetic construct; SITE 2: note = 2-Aminoisobutyric Acid; SITE 6: note = alpha-methyl-2-fluoro-L-phenylalanine; SITE 17: note = Lysine is chemically modified through conjugation of the epsilon-amino group of the Lysine side chain with (2-[2-(2-Amino-ethoxy)-ethoxy]-acetyl)-(gamma-Glu)-CO-(CH2) 16-) [Example 412]	cAMP Rel EC50, nM (1% HSA)	12.5
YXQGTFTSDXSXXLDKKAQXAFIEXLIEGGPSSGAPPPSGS (acylated Lys, C-terminal amide, non-natural residues; synthetic construct; SITE 2: note = 2-Aminoisobutyric Acid; SITE 10: note = 3-(4-Pyridyl)-L-alanine; SITE 12: note = L-ornithine; SITE 13: note = alpha-methyl-leucine; SITE 17: note = Lysine is chemically modified through conjugation of the epsilon-amino group of the Lysine side chain with (gamma-Gl)) [Example 952]	cAMP Rel EC50, nM (1% HSA)	16.6
YXQGTFTSDFSRXLDKKAQXAFIEYLIEGGESSGAPPPSGS (synthetic construct; SITE 2: note = 2-Aminoisobutyric Acid; SITE 13: note = alpha-methyl-leucine; SITE 17: note = Lysine is chemically modified through conjugation of the epsilon-amino group of the Lysine side chain with (2-[2-(2-Amino-ethoxy)-ethoxy]-acetyl)-(gamma-Glu)-CO-(CH2) 16-CO2H; SITE 20: n) [Example 794]	cAMP Rel EC50, nM (1% HSA)	68.4

Values from patent US20240270821A1
